All figures here come from patent US11203586B2.

- Target Of Assay: IDH1 (R132H) (Homo sapiens (Human), UniProt O75874, R132H)
- Sequence (O75874 whole entry R132H): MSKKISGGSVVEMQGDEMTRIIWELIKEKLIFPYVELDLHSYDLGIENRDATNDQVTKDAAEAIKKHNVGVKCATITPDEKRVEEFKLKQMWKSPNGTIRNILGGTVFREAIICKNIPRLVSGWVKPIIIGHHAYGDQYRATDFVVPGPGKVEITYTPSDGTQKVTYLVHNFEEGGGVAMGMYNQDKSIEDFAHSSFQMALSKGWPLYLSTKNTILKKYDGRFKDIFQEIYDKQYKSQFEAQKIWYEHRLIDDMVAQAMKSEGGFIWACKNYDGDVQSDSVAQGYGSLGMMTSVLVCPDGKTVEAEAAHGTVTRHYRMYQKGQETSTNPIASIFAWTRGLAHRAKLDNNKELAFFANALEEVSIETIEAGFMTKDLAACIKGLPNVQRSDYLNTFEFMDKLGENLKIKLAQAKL
- Test Summary: Enzyme assay, NADPH decrease detected with Diaphorase/Resazurin
- Setup Conditions: 40 nM enzyme, 20 μM NADPH, incubated at 23° C. for 16 hours before α-KG; 12 concentrations
pIC50: −log10 of the molar value.
Readout Label: pIC50

These recorded examples may help you get a feel for the data.
Compound	Target Of Assay	pIC50
C[C@@H](NS(=O)(=O)N1CC1)C(=O)N(c1cccc(F)c1)[C@@H](C(=O)NC1CCCCC1)c1ccccc1Cl	IDH1 (R132H) (Homo sapiens (Human), UniProt O75874, R132H)	> 5.00
O=C(NC1CC(F)(F)C1)C(c1ccccc1Cl)N(C(=O)CNS(=O)(=O)N1CC1)c1cccc(F)c1 (stereo not shown)	IDH1 (R132H) (Homo sapiens (Human), UniProt O75874, R132H)	> 7.70

Recorded pIC50 (compound C[C@@H]1CN1S(=O)(=O)NCC(=O)N(c1cccc(F)c1)C(C(=O)NC1CCCCC1)c1ccccc1Cl (stereo partly shown) ): > 7.70

Recorded pIC50 (compound C[C@@H](NS(=O)(=O)N1CC1)C(=O)N(c1cccc(F)c1)[C@H](C(=O)NC1CCCCC1)c1ccccc1Cl ): > 7.00

Recorded pIC50 (compound O=C(NC1CCCCC1)C(c1ccccc1Cl)N(C(=O)CCCS(=O)(=O)N1CC1)c1cccc(F)c1 (stereo not shown) ): > 7.70

Recorded pIC50 (compound CN(CC(=O)N(c1cccc(F)c1)C(C(=O)NC1CCCCC1)c1ccccc1Cl)S(=O)(=O)N1CC1 (stereo not shown) ): > 7.70

Recorded pIC50 (compound O=C(NC1CC(F)(F)C1)[C@@H](c1ccccc1Cl)N(C(=O)CNS(=O)(=O)N1CC1)c1cccc(F)c1 ): > 7.00

* * *

- Target Of Assay: IDH1 (R132H) (Homo sapiens (Human), UniProt O75874, R132H)
- Test Summary: Enzyme assay, NADPH decrease detected with Diaphorase/Resazurin
- Setup Conditions: 40 nM enzyme, 20 μM NADPH, incubated at 23° C. for 16 hours before α-KG; 12 concentrations
Readout Label: IC50

Compound	Target Of Assay	IC50
O=C(NC1CC(F)(F)C1)C(c1ccccc1Cl)N(C(=O)CNS(=O)(=O)N1CC1)c1cncc(F)c1 (stereo not drawn)	IDH1 (R132H) (Homo sapiens (Human), UniProt O75874, R132H)	< 100 nM
CC(C)[C@@H]1CN1S(=O)(=O)N(CC(=O)N(c1cccc(F)c1)C(C(=O)NC1CCCCC1)c1ccccc1Cl)C(=O)OC(C)(C)C (stereo partly drawn)	IDH1 (R132H) (Homo sapiens (Human), UniProt O75874, R132H)	< 10000 nM
CC(C)[C@@H]1CN1S(=O)(=O)NCC(=O)N(c1cccc(F)c1)C(C(=O)NC1CCCCC1)c1ccccc1Cl (stereo in doubt)	IDH1 (R132H) (Homo sapiens (Human), UniProt O75874, R132H)	< 100 nM
O=C(NC1CC(F)(F)C1)C(c1ccccc1Cl)N(C(=O)CCS(=O)(=O)N1CC1)c1cccc(F)c1 (stereo not drawn)	IDH1 (R132H) (Homo sapiens (Human), UniProt O75874, R132H)	< 20 nM
O=C(NC1CC(F)(F)C1)C(c1ccccc1Cl)N(C(=O)CCNS(=O)(=O)N1CC1)c1cccc(F)c1 (stereo not drawn)	IDH1 (R132H) (Homo sapiens (Human), UniProt O75874, R132H)	< 20 nM
O=C(NC1CC(F)(F)C1)[C@@H](c1ccccc1Cl)N(C(=O)[C@H]1CCN(S(=O)(=O)N2CC2)C1)c1cccc(F)c1	IDH1 (R132H) (Homo sapiens (Human), UniProt O75874, R132H)	< 20 nM
O=C(NC1CCCCC1)[C@H](c1ccccc1Cl)N(C(=O)[C@@H]1CCCN1S(=O)(=O)N1CC1)c1cccc(F)c1	IDH1 (R132H) (Homo sapiens (Human), UniProt O75874, R132H)	< 100 nM
O=C(NC1CCCCC1)C(c1ccccc1Cl)N(C(=O)C1CC(NS(=O)(=O)N2CC2)C1)c1cccc(F)c1 (stereo not drawn)	IDH1 (R132H) (Homo sapiens (Human), UniProt O75874, R132H)	< 20 nM

Recorded IC50 (compound O=C(NC1CCCCC1)C(c1ccccc1Cl)N(C(=O)C1CCN(S(=O)(=O)N2CC2)C1)c1cccc(F)c1 (stereo not drawn) ): < 20 nM

* * *

- Target Of Assay: IDH1 (R132H) (Homo sapiens (Human), UniProt O75874, R132H)
- Test Summary: Enzyme assay, NADPH decrease detected with Diaphorase/Resazurin
- Setup Conditions: 40 nM enzyme, 20 μM NADPH, incubated at 23° C. for 16 hours before α-KG; 12 concentrations
pIC50: −log10 of the molar value.
Measured pIC50 of individual entries

These recorded examples may help you get a feel for the data.
Molecule	pIC50
O=C(NC1CC(F)(F)C1)[C@H](c1ccccc1Cl)N(C(=O)[C@H]1CCN(S(=O)(=O)N2CC2)C1)c1cccc(F)c1	> 7.70
O=C(NC1CCCCC1)C(c1ccccc1Cl)N(C(=O)CS(=O)(=O)N1CC1)c1cccc(F)c1 (centres unmarked)	> 7.70
O=C(NC1CC(F)(F)C1)C(c1ccccc1Cl)N(C(=O)CNS(=O)(=O)N1CC1)c1ccc(F)c(F)c1 (centres unmarked)	> 7.70
O=C(NC1CCCCC1)C(c1ccccc1Cl)N(C(=O)CNS(=O)(=O)N1CC1)c1cccc(F)c1 (centres unmarked)	> 7.70

// next entry
Bench note, IDH1 (R132H) (Homo sapiens (Human), UniProt O75874, R132H): entry NS(=O)(=O)c1cccc(N(C(=O)CNS(=O)(=O)N2CC2)C(C(=O)NC2CC(F)(F)C2)c2ccccc2Cl)c1 (centres unmarked) , its pIC50 = > 7.00

* * *

- Target Of Assay: IDH1 (R132H) (Homo sapiens (Human), UniProt O75874, R132H)
- Test Summary: Enzyme assay, NADPH decrease detected with Diaphorase/Resazurin
- Format: biochemical
- Setup Conditions: 40 nM enzyme, 20 μM NADPH, incubated at 23° C. for 16 hours before α-KG; 12 concentrations
Measured IC50 of individual entries

These recorded examples may help you get a feel for the data.
Molecule	IC50
O=C(NC1CC(F)(F)C1)C(c1ccccc1Cl)N(C(=O)CNS(=O)(=O)N1CC1)c1cccc(C(F)(F)F)c1 (stereo not shown)	< 100 nM
O=C(NC1CC(F)(F)C1)[C@H](c1ccccc1Cl)N(C(=O)[C@@H]1CCN(S(=O)(=O)N2CC2)C1)c1cccc(F)c1	< 20 nM
O=C(NC1CCCCC1)C(c1ccccc1Cl)N(C(=O)CCNS(=O)(=O)N1CC1)c1cccc(F)c1 (stereo not shown)	< 20 nM

Bench note, IDH1 (R132H) (Homo sapiens (Human), UniProt O75874, R132H): entry O=C(NC1CCCCC1)C(c1ccccc1Cl)N(C(=O)C1CN(S(=O)(=O)N2CC2)C1)c1cccc(F)c1 (stereo not shown) , its IC50 = < 20 nM

Bench note, IDH1 (R132H) (Homo sapiens (Human), UniProt O75874, R132H): entry O=C(NC1CCCCC1)C(c1ccccc1Cl)N(C(=O)CNS(=O)(=O)N1CC1)c1cc(F)cc(F)c1 (stereo not shown) , its IC50 = < 20 nM

Bench note, IDH1 (R132H) (Homo sapiens (Human), UniProt O75874, R132H): entry O=C(NC1CCC(F)(F)CC1)C(c1ccccc1Cl)N(C(=O)CNS(=O)(=O)N1CC1)c1cccc(F)c1 (stereo not shown) , its IC50 = < 20 nM

Bench note, IDH1 (R132H) (Homo sapiens (Human), UniProt O75874, R132H): entry C[C@H](NS(=O)(=O)N1CC1)C(=O)N(c1cccc(F)c1)C(C(=O)NC1CCCCC1)c1ccccc1Cl (stereo partly shown) , its IC50 = < 500 nM
